Biological target: HLA-A*0206 (Homo sapiens, UniProt P04439, D140Y/D185E/D98H/E176V/E277Q/F33Y/G131W/G231S/I119V/I121R/I166T/I218V/L300P/L318F/N151K/N90K/P208A/P217A/Q86G/Q94H/R138H/R169H/T345S)
Type: binding
Details: Table XXII, A2 supermotif peptides and analogs
pIC50: −log10 of the molar value. Where a SMILES comes first, the peptide text is derived from it. [ ]: non-standard residue; d: D form. Abu = CC[C@H](N)C(=O)O
measured_attribute: pIC50

INSERT INTO assay_data (molecule, experimental_result) VALUES
  ('CC[C@H](NC(=O)[C@@H](NC(=O)[C@H](C)N)[C@@H](C)O)C(=O)N[C@@H](CCCNC(=N)N)C(=O)N[C@@H](Cc1c[nH]c2ccccc12)C(=O)NCC(=O)N[C@@H](CC(C)C)C(=O)N[C@@H](CC(C)C)C(=O)N[C@H](C(=O)O)C(C)C [Her2/neu.5.T2B3V9] (H-AT[Abu]RWGLLV-OH)', 5.66),
  ('CC[C@H](NC(=O)[C@H](CCSC)NC(=O)[C@H](C)N)C(=O)N[C@@H](CCCNC(=N)N)C(=O)N[C@@H](Cc1c[nH]c2ccccc12)C(=O)NCC(=O)N[C@@H](CC(C)C)C(=O)N[C@@H](CC(C)C)C(=O)N[C@H](C(=O)O)C(C)C [Her2/neu.5M2B3V9] (H-AM[Abu]RWGLLV-OH)', 6.14),
  ('CC[C@H](NC(=O)[C@@H](NC(=O)[C@H](C)N)C(C)C)C(=O)N[C@@H](CCCNC(=N)N)C(=O)N[C@@H](Cc1c[nH]c2ccccc12)C(=O)NCC(=O)N[C@@H](CC(C)C)C(=O)N[C@@H](CC(C)C)C(=O)N[C@H](C(=O)O)C(C)C [Her2/neu.5V2B3V9] (H-AV[Abu]RWGLLV-OH)', 5.66),
  ('CC[C@H](NC(=O)[C@H](CCCCN)NC(=O)[C@@H](NC(=O)[C@H](CCSC)NC(=O)[C@@H](NC(=O)[C@H](CC(C)C)NC(=O)[C@@H](N)Cc1ccc(O)cc1)[C@@H](C)CC)C(C)C)C(=O)N[C@@H](Cc1c[nH]c2ccccc12)C(=O)N[C@@H](CCSC)C(=O)N[C@H](C(=O)O)C(C)C [Her2/neu.952L2B7V10] (H-YLIMVK[Abu]WMV-OH)', 7.96);
